Biological target: wild-type SARS-CoV-2 Wuhan Hu-1 receptor-binding domain (residues 319-533) (SARS-CoV-2 Wuhan-Hu-1)
Test: BLI
Settings: both partners purified
readout: binding result

binder	recorded.measurement
C022 (antibody, V domains shown, also called S2X259-like class 4 antibody) VH: QVQLQESGPGLVKPSETLSVTCTVSGGSISSSRYYWGWIRQPPGKGLEWIGSIYYSGSTYYNPSLKSRVTISVDTSKNQFSLKLSSVTAADTAVYYCARHAAAYYDRSGYYFIEYFQHWGQGTLVTVSS VL: DIQMTQSPSTLSASVGDSVTITCRASQSISSWLAWYQQKPGKAPKLLIYKASSLESGVPSRFSGSGSGTEFTLTISSLQPDDFATYYCQQYNNYRYTFGQGTKLEIK	binds
COVA2-15 (antibody, V domains shown, also called class 2 antibody) VH: QVQLLESGGGLVQPGGSLRLSCAASGFTFSSYAMSWVRQAPGKGLEWASAISGSGGSTYYADSVEGRFTISRDNSKNTLYLQMNSLRAEDTAVYYCAKDTGYCGDDCYIKLIRGGPDYWGQGTLVTVSS VL: DIVMTQSPLSLPVTLGQPASISCRSSQSLVYSDGNTFLNWFQQRPGQSPRRLIYQVSNRDSGVPDRFSGSGSGTDFTLKISRVEAEDVGVYYCMQGTHWPRTFGQGTKLEIK	binds
1-16 (antibody, V domains shown, also called S2X259-like class 4 antibody) VH: QVQLVQSGAEVKKPGASVKVSCKASGYTFTSYYMHWVRQAPGQGLEWMGIINSSGGSTSYAQKFQGRVTMTRDTSTSTVYMELSSLRSEDTAVYYCARPPRNYYDRSGYYQRAEYFQHWGQGTLVTVSS VL: DIQLTQSPSSLSASVGDRVTITCQASQDISNYLNWYQQRPGKAPKLLIYDASNLETGVPSRFSGSGSGTDFTFTISSLQPEDIATYYCQQYDNPPLTFGGGTKLEIK	binds
